Molecular target: T1, Carbon-terminal polyhistidine-labeled recombinant cynomolgus monkey CD73 enzyme (cynomolgus monkey, UniProt A0A2K5V5U7 1-547)
T1 chain: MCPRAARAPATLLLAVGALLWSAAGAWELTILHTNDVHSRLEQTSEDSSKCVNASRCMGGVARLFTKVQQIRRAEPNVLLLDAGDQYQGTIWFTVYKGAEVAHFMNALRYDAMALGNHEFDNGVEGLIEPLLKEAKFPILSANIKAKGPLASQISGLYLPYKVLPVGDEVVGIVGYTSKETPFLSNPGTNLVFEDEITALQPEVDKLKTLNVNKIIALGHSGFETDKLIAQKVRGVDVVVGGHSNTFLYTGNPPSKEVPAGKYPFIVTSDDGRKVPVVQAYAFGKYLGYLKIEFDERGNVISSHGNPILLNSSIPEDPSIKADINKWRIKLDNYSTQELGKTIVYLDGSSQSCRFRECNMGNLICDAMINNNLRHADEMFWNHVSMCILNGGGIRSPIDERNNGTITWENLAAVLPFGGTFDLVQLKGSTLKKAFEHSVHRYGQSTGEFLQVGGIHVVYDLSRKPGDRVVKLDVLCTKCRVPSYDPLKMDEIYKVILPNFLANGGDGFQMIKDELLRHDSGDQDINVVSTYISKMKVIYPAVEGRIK
Assay: enzyme inhibition; left table
endpoint.label: IC50 (nM)
I only need the number, in nM, no unit after it.

Example cases with answers are listed next.
[
  {
    "binder": "Hu002c-7 (antibody, V domains shown) VH: QVQLVQSGAEVKKPGASVKVSCKASGYTLTSYWMHWVRQAPGQGLEWIGEINPSQGRSNYNEKFKSRVTLTVDRSTSTVYMELSSLRSEDTAVYYCARRGVSGNYFDYWGQGTLVTVSS VL: DIQMTQSPSSLSASVGDRVTITCKASQDINTYLSWFQQKPGKSPKSLIYRSNILVSGVPSRFSGSGSGQDYTLTISSLQPEDFATYYCLQYDEFPYTFGGGTKLEIK",
    "IC50 / nM": 0.052
  },
  {
    "binder": "mAb002c (antibody, V domains shown) VH: QVQLQQPGAELVKPGASVRLSCKASGYTLTSYWMHWVKKRPGQGLEWIGEINPSNGRSNYNEKFKSKATLTVDRSSSTVYMQLGSLTSEDSAVYYCARRGVSGNYFDYWGQGTTLTVSS VL: DIKMTQSPSSMYASLGERVTMTCKASQDINTYLSWFQQKPGKSPKTLIYRSNILVDGVPSRFSGSRSGQDYYLTITSLEYEDMGIYYCLQYDEFPYTFGGGTKLELK",
    "IC50 / nM": 0.039
  },
  {
    "binder": "Hu001c-28 (antibody, V domains shown) VH: QVQLVQSGAEVKKPGASVKVSCKTSGYTFTNYYIYWVKQRPGQGLEWIGWIYPGNLNIKYNEKFKGRVTITADKSASTAYMELSSLRSEDTAVYYCARDDNYAWFAYWGQGTLVTVSS VL: DIQMTQSPSSLSASVGDRVTITCKASQDVSTAVAWYQQKPGKSPKLLIYWTNTRHTGVPSRFSGSGSGTDHTLTISSLQPEDFATYYCQQHYSTPFTFGQGTKLEIK",
    "IC50 / nM": 0.03
  },
  {
    "binder": "Hu001c-22 (antibody, V domains shown) VH: QVQLVQSGAEVKKPGASVKVSCKASGYTFTNYYIYWVKQRPGQRLEWIGWIYPGNLNIKYNEKFKGRVTITADKSASTAYMELSSLRSEDTAVYYCARDDNYAWFAYWGQGTLVTVSS VL: DIQMTQSPSSLSASVGDRVTITCKASQDVSTAVAWYQQKPGKAPKLLIYWTNTRHTGVPSRFSGSGSGTDHTLTISSLQPEDFATYYCQQHYSTPFTFGQGTKLEIK",
    "IC50 / nM": 0.08
  }
]

In: Return reported IC50; argument: Hu002c-6 (antibody, V domains shown) VH: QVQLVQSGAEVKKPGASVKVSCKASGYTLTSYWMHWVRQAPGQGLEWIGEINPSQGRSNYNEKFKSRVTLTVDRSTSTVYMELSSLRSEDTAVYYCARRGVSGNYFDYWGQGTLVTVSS VL: DIQMTQSPSSLSASVGDRVTITCKASQDINTYLSWFQQKPGKAPKSLIYRSNILVSGVPSRFSGSGSGQDYTLTISSLQPEDFATYYCLQYDEFPYTFGQGTKLEIK
Out: 0.055
